- Target Or System: IgE antibodies of the allergic patient serum pool We 6/97
- Procedure Details: EAST inhibition, serum pool We 6/97
Recorded allergenic potency (Prel) at 50% inhibition (relative to native Phl p 5b) values for a group of binders are listed next.
Just the number, please.

Illustrative cases are given below, each with its answer.
- Binder: "rPhl p 5b point mutant PM3 (A13C) (protein) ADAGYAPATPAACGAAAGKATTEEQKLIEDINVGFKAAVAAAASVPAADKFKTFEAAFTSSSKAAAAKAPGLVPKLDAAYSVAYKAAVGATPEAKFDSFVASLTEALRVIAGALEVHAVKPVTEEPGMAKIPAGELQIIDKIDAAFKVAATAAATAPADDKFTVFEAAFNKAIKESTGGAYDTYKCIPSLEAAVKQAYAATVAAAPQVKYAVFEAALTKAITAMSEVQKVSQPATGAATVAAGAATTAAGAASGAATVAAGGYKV"
  Number: 0.203
- Binder: "rPhl p 5b point mutant PM1 (N32D, D49L, K50A) (protein) ADAGYAPATPAAAGAAAGKATTEEQKLIEDIDVGFKAAVAAAASVPAALAFKTFEAAFTSSSKAAAAKAPGLVPKLDAAYSVAYKAAVGATPEAKFDSFVASLTEALRVIAGALEVHAVKPVTEEPGMAKIPAGELQIIDKIDAAFKVAATAAATAPADDKFTVFEAAFNKAIKESTGGAYDTYKCIPSLEAAVKQAYAATVAAAPQVKYAVFEAALTKAITAMSEVQKVSQPATGAATVAAGAATTAAGAASGAATVAAGGYKV"
  Number: 0.051

For record rPhl p 5b deletion mutant DM3 (deletion A154-T177, A220T) (protein) ADAGYAPATPAAAGAAAGKATTEEQKLIEDINVGFKAAVAAAASVPAADKFKTFEAAFTSSSKAAAAKAPGLVPKLDAAYSVAYKAAVGATPEAKFDSFVASLTEALRVIAGALEVHAVKPVTEEPGMAKIPAGELQIIDKIDAAFKVAATAAGGAYDTYKCIPSLEAAVKQAYAATVAAAPQVKYAVFEAALTKTITAMSEVQKVSQPATGAATVAAGAATTAAGAASGAATVAAGGYKV the listed allergenic potency (Prel) at 50% inhibition (relative to native Phl p 5b) is 0.002
